meta.source: patent US20220054465A1

- Test system: HEK-Blue TGFβ cell
- protocol_text: HEK-Blue TGFβ cellular reporter gene assay (SEAP readout)
- Format: cell-based
- conditions_used: HEK-Blue TGFβ cells stimulated with TGF-β, 22-23 h incubation, SEAP read at 630 nm

{"test_smiles": "COc1ccc(Nc2cc(Oc3cc(C)c(C)nc3-c3ccccn3)ccn2)cc1CCc1nn[nH]n1", "assay_system": "HEK-Blue TGFβ cell", "IC50 [nM]": 150}
{"test_smiles": "CCc1nc(C)c(Oc2ccnc(Nc3cccc(CC4(C(=O)O)COC4)c3)c2)cc1C", "assay_system": "HEK-Blue TGFβ cell", "IC50 [nM]": 57}
{"test_smiles": "Cc1ccc(Oc2ccnc(Nc3cccc(CCc4nn[nH]n4)c3)c2)c(C)n1", "assay_system": "HEK-Blue TGFβ cell", "IC50 [nM]": 120}
{"test_smiles": "CCc1nc(C)c(Oc2ccnc(Nc3cccc(C(C)(C)C(=O)O)c3)c2)cc1Cl", "assay_system": "HEK-Blue TGFβ cell", "IC50 [nM]": 35}
{"test_smiles": "Cc1cc(CCc2nn[nH]n2)cc(Nc2cc(Oc3cc(Cl)c(C)nc3C)ccn2)c1", "assay_system": "HEK-Blue TGFβ cell", "IC50 [nM]": 24}
{"test_smiles": "Cc1cc(CC(C)(C)C(=O)O)cc(Nc2cc(Oc3cn(C4CC4)nc3C3CCOCC3)ccn2)c1", "assay_system": "HEK-Blue TGFβ cell", "IC50 [nM]": 120}
{"test_smiles": "Cc1cc(Oc2ccnc(Nc3ccc(C(F)(F)F)c(CCc4nn[nH]n4)c3)c2)c(-c2ccccn2)nc1C", "assay_system": "HEK-Blue TGFβ cell", "IC50 [nM]": 230}
{"test_smiles": "Cc1cc(Oc2ccnc(Nc3cccc(CCc4nn[nH]n4)c3)c2)c(-c2ccccn2)nc1C", "assay_system": "HEK-Blue TGFβ cell", "IC50 [nM]": 130}
{"test_smiles": "CCc1nc(-c2ccccn2)c(Oc2ccnc(Nc3cccc(CCc4nn[nH]n4)c3)c2)cc1C", "assay_system": "HEK-Blue TGFβ cell", "IC50 [nM]": 39}
{"test_smiles": "Cc1ccc(Oc2ccnc(Nc3cccc(C(C)(C)C(=O)O)c3)c2)c(-c2ccccn2)n1", "assay_system": "HEK-Blue TGFβ cell", "IC50 [nM]": 180}
{"test_smiles": "Cc1nc(-c2ccccc2)ccc1Oc1ccnc(Nc2cccc(C(C)(C)c3nn[nH]n3)c2)c1", "assay_system": "HEK-Blue TGFβ cell", "IC50 [nM]": 190}
{"test_smiles": "Cc1cc(Nc2cc(Oc3cc(C)c(C)nc3C3CCOCC3)ccn2)cc(C(C)(C)C(=O)O)c1", "assay_system": "HEK-Blue TGFβ cell", "IC50 [nM]": 130}
{"test_smiles": "Cc1nc2ccccc2cc1Oc1ccnc(Nc2cccc(CCc3nn[nH]n3)c2)c1", "assay_system": "HEK-Blue TGFβ cell", "IC50 [nM]": 450}
{"test_smiles": "Cc1ccc(Oc2ccnc(Nc3cccc(C(C)(C)C(=O)O)c3)c2)c(C)n1", "assay_system": "HEK-Blue TGFβ cell", "IC50 [nM]": 140}
{"test_smiles": "Cc1ccc(Nc2cc(Oc3cn(C4CC4)nc3C3CCOCC3)ccn2)cc1C(=O)O", "assay_system": "HEK-Blue TGFβ cell", "IC50 [nM]": 2540}
{"test_smiles": "c1ccc(-c2nn(C3CCC3)cc2Oc2ccnc(Nc3cccc(Cc4nn[nH]n4)c3)c2)cc1", "assay_system": "HEK-Blue TGFβ cell", "IC50 [nM]": 89}
